Source of measurements: patent US20230083012A1

# ASSAY: Cytotoxicity determination in HepG2.2.15 cells (CCK-8 cell viability)
# Format: cell-based
# CONDITION_DETAILS: human, 6 days treatment, CCK-8 assay, highest concentration 100 uM
# Experimental: HepG2.2.15 (the HepG2.2.15 cell line can be produced by transfection of the HepG2 cell line as described in Sells, Chen, and Acs 1987 (Proc. Natl. Acad. Sci. USA 84: 1005-1009), and the HepG2 cell line is available from ATCC® under number HIB-8065™) […] Cell viability was determined by CCK-8 assay. […] The absorbance at 450 nm wavelength and the absorbance at 630 nm wavelength as reference was measured. 2) DATA Analysis EC50 and CC50 values are calculated by the GRAPTIPAD PRISM software.
Binary label based on CC50 at 6 days with cut-off 40 µM: below gives label 1, not below gives label 0.

[ask] Hi there! Is CC50 at 6 days for CCOC(=O)C1=C(CN2CC(F)(F)[C@H]3[C@@H]2CCN3CCC(C)(C)C(=O)O)NC(c2nccs2)=N[C@@H]1c1ccc(F)c(F)c1C (single isomer, unassigned) below 40 µM, do you know?
[reply] label 1

[ask] Hi there! Is CC50 at 6 days for CCOC(=O)C1=C(CN2CC(F)(F)C3CN(CC4(C(=O)O)CC4)CC32)NC(c2nccs2)=N[C@H]1c1cccc(F)c1C (some centres unmarked) below 40 µM, do you know?
[reply] label 1

[ask] Hi there! Is CC50 at 6 days for CCOC(=O)C1=C(CN2CC(F)(F)[C@@H]3C(=O)N(CC4(C(=O)O)CCCC4)C[C@@H]32)NC(c2nccs2)=N[C@H]1c1cccc(F)c1C (single isomer, unassigned) below 40 µM, do you know?
[reply] label 1

[ask] Hi there! Is CC50 at 6 days for COC(=O)C1=C(CN2CC(F)(F)[C@H]3[C@@H]2CCN3CCC(C)(C)C(=O)O)NC(c2nccs2)=N[C@H]1c1ccc(F)cc1Cl (single isomer, unassigned) below 40 µM, do you know?
[reply] label 0

[ask] Hi there! Is CC50 at 6 days for CCOC(=O)C1=C(CN2CC(F)(F)C3[C@@H]2CCN3C2CC(C)(C(=O)O)C2)NC(c2nccs2)=N[C@H]1c1cccc(F)c1C (single isomer, unassigned) below 40 µM, do you know?
[reply] label 1

[ask] Hi there! Is CC50 at 6 days for COC(=O)C1=C(CN2CC(F)(F)[C@@H]3CN(C(=O)C(C)(C)C(=O)O)C[C@@H]32)NC(c2nccs2)=N[C@H]1c1cccc(F)c1Cl (single isomer, unassigned) below 40 µM, do you know?
[reply] label 0

[ask] Hi there! Is CC50 at 6 days for CCOC(=O)C1=C(CN2CC(F)(F)[C@H]3[C@@H]2CCN3C(=O)NC(N)=O)NC(c2nccs2)=N[C@H]1c1cccc(F)c1C (single isomer, unassigned) below 40 µM, do you know?
[reply] label 1

[ask] Hi there! Is CC50 at 6 days for CCOC(=O)C1=C(CN2CC(F)(F)[C@@H]3CN(C(=O)NS(C)(=O)=O)C[C@@H]32)NC(c2nccs2)=N[C@H]1c1cccc(F)c1C (single isomer, unassigned) below 40 µM, do you know?
[reply] label 0

[ask] Hi there! Is CC50 at 6 days for CCOC(=O)C1=C(CN2CC(F)(F)[C@@H]3[C@H]2CN(CC(F)(F)F)N3CCC(C)(C)C(=O)O)NC(c2nccs2)=N[C@H]1c1cccc(F)c1C (single isomer, unassigned) below 40 µM, do you know?
[reply] label 1

[ask] Hi there! Is CC50 at 6 days for CCOC(=O)C1=C(CN2CC[C@H]3C(=O)N(CC(C)(C)C(=O)O)C(=O)[C@H]32)NC(c2nccs2)=N[C@H]1c1cccc(F)c1C (relative stereo) below 40 µM, do you know?
[reply] label 1

[ask] Hi there! Is CC50 at 6 days for COC(=O)C1=C(CN2CC(F)(F)[C@H]3[C@@H]2CN(C(C)=O)N3CCC(C)(C)C(=O)O)NC(c2nccs2)=N[C@H]1c1ccc(F)c(F)c1C (single isomer, unassigned) [Compound 82B] below 40 µM, do you know?
[reply] label 0

[ask] Hi there! Is CC50 at 6 days for CCOC(=O)C1=C(CN2CC(F)(F)[C@H]3[C@@H]2CCN3CC(C)(C)C(=O)O)NC(c2nccs2)=N[C@H]1c1cccc(F)c1C (relative stereo) below 40 µM, do you know?
[reply] label 1

[ask] Hi there! Is CC50 at 6 days for CCOC(=O)C1=C(CN2CC(F)(F)[C@@H]3CN(C(=O)CC(C)(C)C(=O)O)C[C@@H]32)NC(c2nccs2)=N[C@H]1c1cccc(F)c1C (single isomer, unassigned) [Compound 23B] below 40 µM, do you know?
[reply] label 1

[ask] Hi there! Is CC50 at 6 days for CCOC(=O)C1=C(CN2CC(F)(F)[C@@H]3[C@H]2CN(C)N3CCOC(C)(C)C(=O)O)NC(c2nccs2)=N[C@H]1c1cccc(F)c1C (single isomer, unassigned) below 40 µM, do you know?
[reply] label 1

[ask] Hi there! Is CC50 at 6 days for CCOC(=O)C1=C(CN2CC(F)(F)[C@@H]3[C@H]2CN(C)N3CCC(C)(C)C(=O)O)NC(c2nccs2)=N[C@H]1c1cccc(F)c1Cl (single isomer, unassigned) below 40 µM, do you know?
[reply] label 0

[ask] Hi there! Is CC50 at 6 days for COC(=O)C1=C(CN2CC(F)(F)[C@@H]3[C@H]2CN(C)N3CCC(C)(C)C(=O)O)NC(c2nccs2)=N[C@H]1c1ccc(F)cc1Cl (single isomer, unassigned) below 40 µM, do you know?
[reply] label 1

[ask] Hi there! Is CC50 at 6 days for CCOC(=O)C1=C(CN2C[C@H](F)[C@H]3[C@@H]2CCN3CCC(C)(C)C(=O)O)NC(c2nccs2)=N[C@H]1c1cccc(F)c1C (single isomer, unassigned) below 40 µM, do you know?
[reply] label 1

[ask] Hi there! Is CC50 at 6 days for COC(=O)C1=C(CN2CC(F)(F)[C@@H]3CN(CC(C)(C)C(=O)O)C[C@@H]32)NC(c2nccs2)=N[C@H]1c1ccc(F)c(F)c1Cl (single isomer, unassigned) [Compound 21B] below 40 µM, do you know?
[reply] label 0
